target_system: E. coli DnaK (Escherichia coli, UniProt P0A6Y8)
Construct: His6-tag with TEV site ([…]) (N, cleaved yes); made in house; host or cells: E. coli (DE3) Rosetta pLysS
Sequence (P0A6Y8 whole entry): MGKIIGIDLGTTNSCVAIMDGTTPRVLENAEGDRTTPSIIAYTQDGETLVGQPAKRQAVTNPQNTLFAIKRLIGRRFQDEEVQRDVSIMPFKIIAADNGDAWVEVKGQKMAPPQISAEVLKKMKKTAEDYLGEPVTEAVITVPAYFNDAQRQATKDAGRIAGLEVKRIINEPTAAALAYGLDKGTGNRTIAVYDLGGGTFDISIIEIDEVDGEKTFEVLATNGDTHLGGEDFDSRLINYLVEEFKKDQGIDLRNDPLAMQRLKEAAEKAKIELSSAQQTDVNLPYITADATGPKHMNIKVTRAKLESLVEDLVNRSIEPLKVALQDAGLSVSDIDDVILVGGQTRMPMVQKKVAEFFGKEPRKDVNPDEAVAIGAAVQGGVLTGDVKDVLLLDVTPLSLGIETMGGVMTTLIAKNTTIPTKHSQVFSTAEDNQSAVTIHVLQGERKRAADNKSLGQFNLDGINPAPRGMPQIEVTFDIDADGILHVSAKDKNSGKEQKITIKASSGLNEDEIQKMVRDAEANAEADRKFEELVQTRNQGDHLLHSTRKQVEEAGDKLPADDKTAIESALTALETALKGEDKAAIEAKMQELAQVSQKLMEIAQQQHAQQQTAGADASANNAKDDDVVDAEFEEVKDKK
Format: binding
value_kind: binding to E. coli DnaK, FP-value normalized to ARV-1502

Recorded results for 5 substances are shown here.
substance: Chex-RPFFPRPKLPRPRPPRPVR-NH2 [compound 90, substituted analog of ARV-1502]
endpoint_value: best binders
--
substance: Chex-RPFFPRPSLPRPRPPRPVR-NH2 [compound 91, substituted analog of ARV-1502]
endpoint_value: best binders
--
substance: Chex-RPDKPRPKSPRPRPPRPVR-NH2 [compound 122, substituted analog of ARV-1502]
endpoint_value: bound neither
--
substance: Chex-RPDKPRPDKPRPRPPRPVR-NH2 [compound 108, substituted analog of ARV-1502]
endpoint_value: bound neither
--
substance: Chex-RPFFPRPYLPRSRPPRPVR-NH2 [compound 106, substituted analog of ARV-1502]
endpoint_value: best binders

What value of binding to E. coli DnaK, FP-value normalized to ARV-1502 on E. coli DnaK (Escherichia coli, UniProt P0A6Y8) does Chex-RPFFPRPYLPSPRPPRPVR-NH2 [compound 101, substituted analog of ARV-1502] have?
best binders

Origin of measurements: paper PMC8864165
